Each entry below carries its recorded TGI.
# Tested on: EKVX NSCLC
# ASSAY_METHOD_TEXT: NCI tumour cell line growth inhibition, 48 h

COMPOUND	TGI
Cc1ccc(S(=O)(=O)NC(=O)Nc2cc(Cl)c(S(N)(=O)=O)cc2S(N)(=O)=O)cc1	> 100 µM
C=C(C)CCC1CC=[N+]([O-])OC1C(C)(C)C (stereo unspecified)	> 100 µM
O=C(c1cc(Cc2n[nH]c(=O)c3ccccc23)ccc1F)N1CCN(C(=O)C2CC2)CC1	> 100 µM
Nc1c(Cl)cc(-c2nc3ccccc3s2)cc1Cl	> 100 µM
O=c1ccc2ccccc2c2ccccc12	35.8 µM
COc1cc(/C=C/C2=C(C#N)C(=O)OC2(C)C)ccc1O	> 100 µM
Cc1ccc(Cl)cc1-n1c(C)nc2c(cnn2-c2ccnc3c(C(F)(F)F)cccc23)c1=O	> 100 µM
COc1ccc(S(=O)(=O)N2CCNCC2)cc1OC	> 100 µM
c1ccc(-c2csc3ncn4cnnc4c23)cc1	> 100 µM
COC(=O)c1cc([N+](=O)[O-])cc([N+](=O)[O-])c1Cl	28.8 µM
NC(CCCCNCc1ccccc1O)C(=O)O (stereo unspecified)	> 100 µM
